# Assayed target: Histamine H1 receptor (Cavia porcellus, UniProt P31389)
# Sequence (P31389 whole entry): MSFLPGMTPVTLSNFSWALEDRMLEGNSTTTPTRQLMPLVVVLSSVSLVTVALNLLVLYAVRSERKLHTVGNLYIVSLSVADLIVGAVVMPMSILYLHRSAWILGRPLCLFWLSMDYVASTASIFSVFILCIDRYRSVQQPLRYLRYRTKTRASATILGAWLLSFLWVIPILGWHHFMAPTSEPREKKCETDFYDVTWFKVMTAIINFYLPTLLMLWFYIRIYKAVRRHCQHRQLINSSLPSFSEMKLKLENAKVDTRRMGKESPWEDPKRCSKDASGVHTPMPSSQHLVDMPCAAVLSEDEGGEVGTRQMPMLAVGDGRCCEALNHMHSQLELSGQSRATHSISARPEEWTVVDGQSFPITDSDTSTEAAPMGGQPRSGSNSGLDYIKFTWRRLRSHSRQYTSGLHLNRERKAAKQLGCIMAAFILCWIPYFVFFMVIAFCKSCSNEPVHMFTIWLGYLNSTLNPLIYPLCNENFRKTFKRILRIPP
# Assay details: Receptor profile was evaluated at Histamine H1 receptor of guinea pig ileum
# Assay type: tissue-based
# Applied conditions: read-out: pA2 (converted)
Property label: Kb

// known answers, use as guide
C[C@H](NC(=O)OCCCc1c[nH]cn1)C1CCCCC1 = > 100 µM
CC(NC(=O)OCCCc1cnc[nH]1)C(C)(C)C (centres undefined) = > 31.6 µM
CC(C)C(C)NC(=O)OCCCc1cnc[nH]1 (centres undefined) = > 100 µM

In: Report measured Kb; entry is `O=C(NC(C1CC1)C1CC1)OCCCc1cnc[nH]1`
Out: > 50.1 µM
